Assay: Plasma protein binding in rat at 2000 ng/ml after 0.5 hrs by LC-MS/MS analysis
Format: ADME, cell-free
Conditions: read-out: PPB (converted)

[
  {
    "compound": "Cc1cc2ncc(C(=O)NCC(C)(C)NCC(=O)N3CCC[C@H]3C#N)cn2n1.Cl [ANAGLIPTIN HYDROCHLORIDE]",
    "fraction unbound at 0.5 h, 2000 ng/ml": 0.229
  },
  {
    "compound": "Cc1cc2ncc(C(=O)NCC(C)(C)NCC(=O)N3CCC[C@H]3C#N)c(C)n2n1.Cl",
    "fraction unbound at 0.5 h, 2000 ng/ml": 0.821
  }
]
